- measurement_target: T1, Gadd45β/MKK7 complex (biotin-hGadd45β with coated GST-MKK7, ELISA format) (human, UniProt O75293 1-160; O14733 1-419, biotinylated (sites not given))
- T1 construct: not shown: glutathione S-transferase (GST) fusion partner
- T1 sequence (looked up) 1: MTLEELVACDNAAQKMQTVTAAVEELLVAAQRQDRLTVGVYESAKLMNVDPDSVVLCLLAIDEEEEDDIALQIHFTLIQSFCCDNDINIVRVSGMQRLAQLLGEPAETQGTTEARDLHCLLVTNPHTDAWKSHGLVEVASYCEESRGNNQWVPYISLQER
- T1 sequence (looked up) 2: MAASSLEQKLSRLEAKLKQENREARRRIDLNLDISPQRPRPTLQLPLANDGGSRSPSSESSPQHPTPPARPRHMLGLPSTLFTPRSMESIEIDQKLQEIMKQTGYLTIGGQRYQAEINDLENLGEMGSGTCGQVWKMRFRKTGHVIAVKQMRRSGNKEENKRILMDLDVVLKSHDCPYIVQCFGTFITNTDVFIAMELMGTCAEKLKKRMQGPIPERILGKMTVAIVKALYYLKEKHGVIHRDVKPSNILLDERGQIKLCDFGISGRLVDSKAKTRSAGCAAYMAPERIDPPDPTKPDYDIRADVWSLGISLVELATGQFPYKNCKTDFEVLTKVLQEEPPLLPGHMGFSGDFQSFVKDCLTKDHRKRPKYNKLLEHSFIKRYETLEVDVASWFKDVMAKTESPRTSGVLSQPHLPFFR
- procedure_text: competition ELISA; coated GST-MKK7, biotin-hGadd45β; single dose
* marks the point of attachment. Cbz = O=C(OCc1ccccc1)*; Bz = O=C(c1ccccc1)*
Please use T whenever % Inhibition of Gadd45β-MKK7 binding is not below 20%, and F whenever it is.

# binder, assigned_class
records = [
    ("Ac-YERP-NH2 [Ac-YERP-NH2]", "F"),
    ("Cbz-YD(OMe)HF-NH2 [Z-YD(OMe)HF-NH2]", "T"),
    ("Bz-YERF-NH2 [Benzoic acid-YERF-NH2]", "T"),
]

Request: Textbook exercise: given the entry Ac-YEHF-NH2 [Ac-YEHF-NH2] , state whether its % Inhibition of Gadd45β-MKK7 binding is greater than or equal to 20%.
Response: T

Request: Textbook exercise: given the entry Ac-YEPF-NH2 [Ac-YEPF-NH2] , state whether its % Inhibition of Gadd45β-MKK7 binding is greater than or equal to 20%.
Response: F

Request: Textbook exercise: given the entry Ac-YERA-NH2 [Ac-YERA-NH2] , state whether its % Inhibition of Gadd45β-MKK7 binding is greater than or equal to 20%.
Response: T

Request: Textbook exercise: given the entry Ac-PERF-NH2 [Ac-PERF-NH2] , state whether its % Inhibition of Gadd45β-MKK7 binding is greater than or equal to 20%.
Response: T

Request: Textbook exercise: given the entry {3‑hydroxy‑4‑methoxybenzoyl}-YDHF-NH2 [3-OH-4MeO-Benzoid acid-YDHF-NH2] , state whether its % Inhibition of Gadd45β-MKK7 binding is greater than or equal to 20%.
Response: T
